# ASSAY_PROTOCOL: High throughput determination of intrinsic clearance in human hepatocytes
# Assay type: in vitro ADME
# EXPERIMENTAL_PARAMETERS: human, pooled cryopreserved human hepatocytes (suspension), high throughput human hepatocyte assay, 1 μM test compound; mean +/− Std Dev
Structures can show the parent of a compound that is named as a salt.
Known hepatocyte CLint at 1 μM of a selection of molecules
ENDPOINT: hepatocyte CLint at 1 μM

[[record]]
molecule = "CCOc1cccnc1Oc1cncc(-c2ncc(C(=O)N[C@H]3CNC[C@H](F)C3)cn2)c1 [Example 7, trifluoroacetate salt]"
reading = "< 1.8 µL/min/1e6 cells"

[[record]]
molecule = "CCOc1cccnc1Oc1cncc(-c2ncc(C(=O)N[C@H]3CNCC[C@@H]3F)cn2)c1 [Example 12, trifluoroacetate salt]"
reading = "< 2.6 µL/min/1e6 cells"

[[record]]
molecule = "CCOc1cccnc1Oc1cncc(-c2ncc(C(=O)N[C@@H]3CNCC[C@H]3F)cn2)c1"
reading = "< 1.9 µL/min/1e6 cells"


----------
# ASSAY_PROTOCOL: Intrinsic clearance in human liver microsomes
# Type: in vitro ADME
# EXPERIMENTAL_PARAMETERS: human, pooled human liver microsomes, pH 7.4, human liver microsome assay, 1 μM test compound; mean +/− STD Dev
Where a name gives a salt, the structure may show the parent alone.
ENDPOINT: microsomal CLint at 1 μM

[[record]]
compound = "CCOc1cccnc1Oc1cncc(-c2ncc(C(=O)N[C@H]3CNCC[C@@H]3F)cn2)c1 [Example 12, trifluoroacetate salt]"
reading = "< 7 µL/min/mg"

[[record]]
compound = "CCOc1cccnc1Oc1cncc(-c2ncc(C(=O)N[C@H]3CCCNC3)cn2)c1 [Example 14, trifluoroacetate salt]"
reading = "< 8 µL/min/mg"

[[record]]
compound = "CCOc1cccnc1Oc1cncc(-c2ncc(C(=O)N[C@@H]3CNCC[C@H]3F)cn2)c1 [Example 5]"
reading = "< 7 µL/min/mg"

[[record]]
compound = "CCOc1cccnc1Oc1cncc(-c2ncc(C(=O)N[C@@H]3CCCNC3)cn2)c1 [Example 22, trifluoroacetate salt]"
reading = "< 8 µL/min/mg"

